Values of Ki reported for UniProt:P41145 appear below.
measurement name: Ki

chemical structure	assayed target	measurement name	value observed
CC(=O)OC[C@@H]1C[C@H](OC(C)=O)C(=O)[C@H]2[C@@]1(C)CC[C@H]1C(=O)O[C@H](c3ccoc3)C[C@]21C	UniProt:P41145	Ki	> 1000 nM
CC(=O)O[C@H]1C[C@@H](c2nnnn2CCC#N)[C@]2(C)CC[C@H]3C(=O)O[C@H](c4ccoc4)C[C@]3(C)[C@H]2C1=O	UniProt:P41145	Ki	> 1000 nM
CC(=O)O[C@H]1C[C@@H](COC(=O)c2cccc(F)c2)[C@]2(C)CC[C@H]3C(=O)O[C@H](c4ccoc4)C[C@]3(C)[C@H]2C1=O	UniProt:P41145	Ki	> 1000 nM

---

Values of pKi reported for Kappa-type opioid receptor (Homo sapiens) appear below.
pKi: −log10 of the molar value.
measurement name: pKi

compound	value observed
CC(=O)O[C@H]1C[C@@H](C(=O)O)[C@]2(C)CC[C@H]3C(=O)O[C@H](c4ccoc4)C[C@]3(C)[C@H]2C1=O	< 6.00
CC(=O)O[C@H]1C[C@@H](COC(=O)C(C)N(C)C(=O)OCC2c3ccccc3-c3ccccc32)[C@]2(C)CC[C@H]3C(=O)O[C@H](c4ccoc4)C[C@]3(C)[C@H]2C1=O (some centres not stated)	< 6.00
COCCOCC(=O)OC[C@@H]1C[C@H](OC(C)=O)C(=O)[C@H]2[C@@]1(C)CC[C@H]1C(=O)O[C@H](c3ccoc3)C[C@]21C	6.21
CC(=O)O[C@H]1C[C@@H](CO)[C@]2(C)CC[C@H]3C(=O)O[C@H](c4ccoc4)C[C@]3(C)[C@H]2C1=O	7.36
CC(=O)O[C@H]1C[C@@H](COC(=O)c2ccc(F)cc2)[C@]2(C)CC[C@H]3C(=O)O[C@H](c4ccoc4)C[C@]3(C)[C@H]2C1=O	< 6.00
CCOC[C@@H]1C[C@H](OC(C)=O)C(=O)[C@H]2[C@@]1(C)CC[C@H]1C(=O)O[C@H](c3ccoc3)C[C@]21C	< 6.00
C/C=C/C(=O)OC[C@@H]1C[C@H](OC(C)=O)C(=O)[C@H]2[C@@]1(C)CC[C@H]1C(=O)O[C@H](c3ccoc3)C[C@]21C	< 6.00

---

assayed target: Kappa-type opioid receptor (Homo sapiens)
method description: Displacement of [3H]diprenorphine binding from human kappa opioid receptor expressed in CHO cells
Type: cell-based
pKi: −log10 of the molar value.

compound	pKi
CC(=O)O[C@H]1C[C@@H](COC(=O)c2ccc(C)cc2)[C@]2(C)CC[C@H]3C(=O)O[C@H](c4ccoc4)C[C@]3(C)[C@H]2C1=O	< 6.00
CC(=O)O[C@H]1C[C@@H](COC(=O)C(C)NC(=O)OCC2c3ccccc3-c3ccccc32)[C@]2(C)CC[C@H]3C(=O)O[C@H](c4ccoc4)C[C@]3(C)[C@H]2C1=O (stereo partly drawn)	< 6.00
C#CCC(=O)OC[C@@H]1C[C@H](OC(C)=O)C(=O)[C@H]2[C@@]1(C)CC[C@H]1C(=O)O[C@H](c3ccoc3)C[C@]21C	< 6.00

---

The following compounds are shown together with reported Efficacy values.
assayed target: Kappa-type opioid receptor (Homo sapiens, UniProt P41145)
Sequence (P41145 whole entry): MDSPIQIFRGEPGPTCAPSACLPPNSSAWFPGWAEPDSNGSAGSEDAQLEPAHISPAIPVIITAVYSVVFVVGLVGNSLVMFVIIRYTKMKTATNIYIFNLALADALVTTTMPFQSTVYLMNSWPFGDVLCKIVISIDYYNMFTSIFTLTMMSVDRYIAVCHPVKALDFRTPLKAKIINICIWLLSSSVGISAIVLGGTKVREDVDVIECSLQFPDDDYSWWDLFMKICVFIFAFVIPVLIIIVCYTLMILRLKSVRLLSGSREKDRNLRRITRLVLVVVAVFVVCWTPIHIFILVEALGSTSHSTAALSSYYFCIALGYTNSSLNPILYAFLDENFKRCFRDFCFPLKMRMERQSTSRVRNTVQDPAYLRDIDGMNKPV
method description: Efficacy at human kappa opioid receptor expressed in CHO cells by [35S]GTP-gamma-S binding assay relative to U50,488H
Format: functional, cell-based

chemical structure	Efficacy (%)
COC(=O)[C@@H]1C[C@H](OC(C)=O)C(=O)[C@H]2[C@@]1(C)CC[C@H]1C(=O)O[C@H](c3ccoc3)C[C@]21C	106
CC(=O)O[C@H]1C[C@@H](COC(=O)C2CC2)[C@]2(C)CC[C@H]3C(=O)O[C@H](c4ccoc4)C[C@]3(C)[C@H]2C1=O	92
CC(=O)O[C@H]1C[C@@H](CO)[C@]2(C)CC[C@H]3C(=O)O[C@H](c4ccoc4)C[C@]3(C)[C@H]2C1=O	107
COCCOCC(=O)OC[C@@H]1C[C@H](OC(C)=O)C(=O)[C@H]2[C@@]1(C)CC[C@H]1C(=O)O[C@H](c3ccoc3)C[C@]21C	98
